The measured values listed here are drawn from patent US6683184B2.

Reported ED50 HCT 15 values for a set of compounds
tested on: HCT-15 (human colon); assay: In vitro antitumor effect against human tumor cell lines, SRB assay, HCT-15; assay type: cell-based; details: HCT 15 cells, 48 hours
Property measured: ED50 HCT 15 (ng/mL)

Compound	Recorded result
COc1cc(OC)cc(N2CCN(C(=Nc3cc(C(C)O)c(C)nc3OC)NO)CC2)c1 (centres unmarked)	0.4
COc1cc(OC)cc(N2CCN(C(=Nc3cc(C)c(C)nc3OC)NO)CC2)c1	0.1
COc1cc(OC)cc(N2CCN(C(=Nc3cc(C(C)=O)c(C)nc3OC)NO)CC2)c1	0.1
COc1nc(C)c(C)cc1N=C(NO)N1CCN(c2cc(C)cc(C)c2)CC1	3
COc1nc2ccccc2nc1NC(=O)N1CCN(c2cccc(Br)c2)CC1	0.1

----------
Below, each of the compounds is paired with its reported ED50 HCT 15 value.
system: HCT-15 (human colon); test: In vitro antitumor effect against human tumor cell lines, SRB assay, HCT-15; assay type: cell-based; details: HCT 15 cells, 48 hours
Property measured: ED50 HCT 15

Compound	Assay target	Recorded result
N.N.[Cl][Pt][Cl] [Cisplatin, reference compound]	HCT-15 (human colon)	3170 ng/mL
COC(=O)c1cc(N=C(NO)N2CCN(c3cc(F)cc(F)c3)CC2)c(OC)nc1C [Example 120]	HCT-15 (human colon)	300 ng/mL
COc1cc(OC)cc(N2CCN(C(=Nc3cc4ccccc4nc3OC)NO)CC2)c1 [Example 172]	HCT-15 (human colon)	20 ng/mL
CCc1nc(OC)c(N=C(NO)N2CCN(c3cc(OC)cc(OC)c3)CC2)cc1C(=O)OC [Example 159]	HCT-15 (human colon)	0.6 ng/mL
COc1nc(C)c(CO)cc1N=C(NO)N1CCN(c2cc(F)cc(F)c2)CC1 [Example 127]	HCT-15 (human colon)	2 ng/mL
COc1nc(C)c(C)cc1N=C(NO)N1CCN(c2cc(CO)cc(CO)c2)CC1 [Example 107]	HCT-15 (human colon)	9 ng/mL
COc1cc(OC)cc(N2CCN(C(=Nc3cc(CO)c(C)nc3OC)NO)CC2)c1 [Example 125]	HCT-15 (human colon)	0.1 ng/mL
COc1nc2ccccc2cc1N=C(NO)N1CCN(c2cc(C)cc(C)c2)CC1 [Example 173]	HCT-15 (human colon)	180 ng/mL
COc1cc(C)c(C)cc1N=C(NO)N1CCN(c2cc(C)cc(C)c2)CC1 [Example 180]	HCT-15 (human colon)	160 ng/mL
COc1nc2ccccc2nc1NC(=O)N1CCN(c2cc(F)cc(F)c2)CC1 [Example 46]	HCT-15 (human colon)	2 ng/mL
COc1nc(C)c(C(C)=O)cc1N=C(NO)N1CCN(c2cc(C)cc(C)c2)CC1 [Example 132]	HCT-15 (human colon)	1 ng/mL
COc1cc(OC)cc(N2CCN(C(=Nc3cc(C)c(C)cc3OC)NO)CC2)c1 [Example 181]	HCT-15 (human colon)	20 ng/mL
COc1nc2ccccc2nc1NC(=O)N1CCN(c2ccccc2SC)CC1 [Example 51]	HCT-15 (human colon)	180 ng/mL
COc1cc(C)c(C)cc1N=C(NO)N1CCN(c2cc(F)cc(F)c2)CC1 [Example 182]	HCT-15 (human colon)	6 ng/mL
COc1nc(C)c(C(C)O)cc1N=C(NO)N1CCN(c2cc(C)cc(C)c2)CC1 (stereo not drawn) [Example 138]	HCT-15 (human colon)	6 ng/mL
COc1nc2ccccc2cc1N=C(NO)N1CCN(c2cccc(Cl)c2)CC1 [Example 176]	HCT-15 (human colon)	0.1 ng/mL
COC(=O)c1cc(N=C(NO)N2CCN(c3cc(OC)cc(OC)c3)CC2)c(OC)nc1C [Example 118]	HCT-15 (human colon)	0.2 ng/mL
COc1cc(C)c(C)cc1N=C(NO)N1CCN(c2ccccc2)CC1 [Example 177]	HCT-15 (human colon)	0.1 ng/mL
